These measurements were taken from patent EP3212201B1.

Kindly supply the reported inhibition at 10 µM values for the records listed here.
- TARGET_ENTITY: LCK (Homo sapiens)
- Sequence (P06239 whole entry, species assumed): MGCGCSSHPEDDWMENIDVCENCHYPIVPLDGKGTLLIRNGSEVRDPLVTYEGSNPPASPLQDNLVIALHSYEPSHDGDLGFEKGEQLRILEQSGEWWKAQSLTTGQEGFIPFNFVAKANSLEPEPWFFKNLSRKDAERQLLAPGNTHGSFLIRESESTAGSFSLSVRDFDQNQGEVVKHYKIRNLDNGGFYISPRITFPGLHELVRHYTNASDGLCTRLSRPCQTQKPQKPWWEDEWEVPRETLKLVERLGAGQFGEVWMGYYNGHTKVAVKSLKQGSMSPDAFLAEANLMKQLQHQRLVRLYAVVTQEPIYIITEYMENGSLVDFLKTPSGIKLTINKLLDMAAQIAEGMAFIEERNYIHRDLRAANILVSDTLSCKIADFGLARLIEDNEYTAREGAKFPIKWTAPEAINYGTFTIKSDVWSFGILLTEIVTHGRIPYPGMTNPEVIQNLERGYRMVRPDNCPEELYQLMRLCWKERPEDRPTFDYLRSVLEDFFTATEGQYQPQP
- ASSAY_NOTES: FRET-based coupled-enzyme protein kinase inhibition assay
- Type: biochemical
- TEST_SETTINGS: compound at 10 µM, 1% DMSO
Number in %, nothing else.

Ask: So what's the measured inhibition at 10 µM for this one? Nc1ncnc2c1ncn2[C@@H]1O[C@H](COC(=O)N2CCN(Cc3ccccc3)CC2CO)[C@@H](O)[C@H]1O (some centres unmarked) [Compound C13]
Reply: 44

Ask: So what's the measured inhibition at 10 µM for this one? Nc1ncnc2c1ncn2[C@@H]1O[C@H](COC(=O)N2CCS(=O)(=O)CC2)[C@@H](O)[C@H]1O [Compound C100]
Reply: 9

Ask: So what's the measured inhibition at 10 µM for this one? CC(C)N1CCC(NC(=O)OC[C@H]2O[C@@H](n3cnc4c(N)ncnc43)[C@H](O)[C@@H]2O)CC1 [Compound C19]
Reply: 32

Ask: So what's the measured inhibition at 10 µM for this one? Nc1ncnc2c1ncn2[C@@H]1O[C@H](COC(=O)N2CCN(C(=O)N3CCOCC3)CC2)[C@@H](O)[C@H]1O [Compound C89]
Reply: 9

Ask: So what's the measured inhibition at 10 µM for this one? C[C@@H](NC(=O)OC[C@H]1O[C@@H](n2cnc3c(N)ncnc32)[C@H](O)[C@@H]1O)c1ccc(Cl)cc1 [Compound C4]
Reply: 60

Ask: So what's the measured inhibition at 10 µM for this one? Nc1ncnc2c1ncn2[C@@H]1O[C@H](COC(=O)N2CCC(Cc3ccc(F)cc3)C2)[C@@H](O)[C@H]1O (some centres unmarked) [Compound C66]
Reply: 57

Ask: So what's the measured inhibition at 10 µM for this one? CN(C)CCNC(=O)OC[C@H]1O[C@@H](n2cnc3c(N)ncnc32)[C@H](O)[C@@H]1O [Compound C85]
Reply: 25

Ask: So what's the measured inhibition at 10 µM for this one? Nc1ncnc2c1ncn2[C@@H]1O[C@H](COC(=O)N2CCC[C@H]2CO)[C@@H](O)[C@H]1O [Compound C9]
Reply: 19

Ask: So what's the measured inhibition at 10 µM for this one? N#CCCN1CCN(C(=O)OC[C@H]2O[C@@H](n3cnc4c(N)ncnc43)[C@H](O)[C@@H]2O)CC1 [Compound C70]
Reply: 11

Ask: So what's the measured inhibition at 10 µM for this one? Nc1ncnc2c1ncn2[C@@H]1O[C@H](COC(=O)NCCN2CCCC2=O)[C@@H](O)[C@H]1O [Compound C22]
Reply: 15

Ask: So what's the measured inhibition at 10 µM for this one? Nc1ncnc2c1ncn2[C@@H]1O[C@H](COC(=O)N[C@@H]2CCN(Cc3ccccc3)C2)[C@@H](O)[C@H]1O [Compound C10]
Reply: 62

Ask: So what's the measured inhibition at 10 µM for this one? Nc1ncnc2c1ncn2[C@@H]1O[C@H](COC(=O)NC[C@H](O)CO)[C@@H](O)[C@H]1O [Compound C8]
Reply: 26

Ask: So what's the measured inhibition at 10 µM for this one? CN1CCN(CCNC(=O)OC[C@H]2O[C@@H](n3cnc4c(N)ncnc43)[C@H](O)[C@@H]2O)CC1 [Compound C46]
Reply: 13

Ask: So what's the measured inhibition at 10 µM for this one? Nc1ncnc2c1ncn2[C@@H]1O[C@H](COC(=O)NCCCc2nc3ccccc3[nH]2)[C@@H](O)[C@H]1O [Compound C1]
Reply: 72

====

- TARGET_ENTITY: EGFR (ErbB1) (Homo sapiens, UniProt P00533)
- Sequence (P00533 25-1210, species assumed): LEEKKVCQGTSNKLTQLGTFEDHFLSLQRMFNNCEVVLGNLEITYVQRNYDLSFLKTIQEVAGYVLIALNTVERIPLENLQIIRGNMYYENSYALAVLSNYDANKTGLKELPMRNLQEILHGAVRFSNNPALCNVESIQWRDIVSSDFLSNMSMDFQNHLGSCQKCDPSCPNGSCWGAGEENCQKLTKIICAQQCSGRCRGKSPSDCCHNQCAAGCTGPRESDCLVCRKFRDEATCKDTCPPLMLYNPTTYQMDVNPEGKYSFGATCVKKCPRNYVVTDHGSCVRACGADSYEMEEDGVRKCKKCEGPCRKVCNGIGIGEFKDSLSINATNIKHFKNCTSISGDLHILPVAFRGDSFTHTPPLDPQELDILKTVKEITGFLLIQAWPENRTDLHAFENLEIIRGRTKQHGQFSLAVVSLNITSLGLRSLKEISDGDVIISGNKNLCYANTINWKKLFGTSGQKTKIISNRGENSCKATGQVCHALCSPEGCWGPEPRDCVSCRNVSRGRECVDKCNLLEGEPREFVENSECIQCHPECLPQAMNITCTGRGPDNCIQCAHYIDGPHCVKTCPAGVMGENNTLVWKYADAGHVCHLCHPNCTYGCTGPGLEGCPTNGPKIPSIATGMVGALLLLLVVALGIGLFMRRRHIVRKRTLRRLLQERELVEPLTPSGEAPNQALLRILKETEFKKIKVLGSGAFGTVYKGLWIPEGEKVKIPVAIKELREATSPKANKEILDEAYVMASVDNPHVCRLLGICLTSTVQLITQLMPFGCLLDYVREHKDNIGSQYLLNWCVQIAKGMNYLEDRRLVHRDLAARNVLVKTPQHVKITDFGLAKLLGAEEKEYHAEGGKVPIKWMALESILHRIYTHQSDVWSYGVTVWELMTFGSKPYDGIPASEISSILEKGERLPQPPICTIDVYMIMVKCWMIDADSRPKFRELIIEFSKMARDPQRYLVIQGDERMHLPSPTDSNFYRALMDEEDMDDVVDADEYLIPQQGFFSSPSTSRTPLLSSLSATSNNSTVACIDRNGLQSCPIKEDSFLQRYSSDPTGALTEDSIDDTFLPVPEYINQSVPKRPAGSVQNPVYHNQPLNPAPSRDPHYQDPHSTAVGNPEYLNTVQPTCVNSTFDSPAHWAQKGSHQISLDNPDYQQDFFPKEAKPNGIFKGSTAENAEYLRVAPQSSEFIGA
- ASSAY_NOTES: FRET-based coupled-enzyme protein kinase inhibition assay
- Format: biochemical
- TEST_SETTINGS: compound at 10 µM, 1% DMSO
VALUE_TYPE: inhibition at 10 µM
A bare number is not enough; add the unit after it.

Ask: So what's the measured inhibition at 10 µM for this one? "Nc1ncnc2c1ncn2[C@@H]1O[C@H](COC(=O)N2CCC[C@H]2CO)[C@@H](O)[C@H]1O"
Reply: -2%

Ask: So what's the measured inhibition at 10 µM for this one? "CN(C)CCNC(=O)OC[C@H]1O[C@@H](n2cnc3c(N)ncnc32)[C@H](O)[C@@H]1O"
Reply: 20%

Ask: So what's the measured inhibition at 10 µM for this one? "Nc1ncnc2c1ncn2[C@@H]1O[C@H](COC(=O)N2CCN(C(=O)N3CCOCC3)CC2)[C@@H](O)[C@H]1O"
Reply: 28%

Ask: So what's the measured inhibition at 10 µM for this one? "Nc1ncnc2c1ncn2[C@@H]1O[C@H](COC(=O)NCCCc2nc3ccccc3[nH]2)[C@@H](O)[C@H]1O"
Reply: 34%

Ask: So what's the measured inhibition at 10 µM for this one? Nc1ncnc2c1ncn2[C@@H]1O[C@H](COC(=O)N2CCN(Cc3ccccc3)CC2CO)[C@@H](O)[C@H]1O (some centres unmarked)
Reply: 8%

====

- TARGET_ENTITY: UniProt P45983
- Sequence (P45983 whole entry, species assumed): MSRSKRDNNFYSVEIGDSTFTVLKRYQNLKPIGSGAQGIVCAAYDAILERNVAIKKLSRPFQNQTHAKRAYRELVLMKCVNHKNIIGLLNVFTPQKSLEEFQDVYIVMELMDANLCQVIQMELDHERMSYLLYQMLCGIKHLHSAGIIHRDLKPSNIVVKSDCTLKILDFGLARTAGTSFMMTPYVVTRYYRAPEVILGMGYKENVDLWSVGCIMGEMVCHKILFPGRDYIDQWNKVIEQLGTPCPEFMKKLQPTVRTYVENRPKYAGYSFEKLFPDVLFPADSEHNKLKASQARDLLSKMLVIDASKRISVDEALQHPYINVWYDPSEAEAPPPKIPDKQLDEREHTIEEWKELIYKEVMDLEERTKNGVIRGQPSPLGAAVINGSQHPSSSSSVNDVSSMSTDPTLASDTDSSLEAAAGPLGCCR
- ASSAY_NOTES: FRET-based coupled-enzyme protein kinase inhibition assay
- Assay type: biochemical
- TEST_SETTINGS: compound at 10 µM, 1% DMSO
VALUE_TYPE: inhibition at 10 µM (%)
Number in %, nothing else.

Ask: Could you share what inhibition at 10 µM was measured for "Nc1ncnc2c1ncn2[C@@H]1O[C@H](COC(=O)N2CCN(CCc3ccccc3)CC2)[C@@H](O)[C@H]1O" , tested on UniProt P45983?
Reply: 8

Ask: Could you share what inhibition at 10 µM was measured for "C[C@@H](NC(=O)OC[C@H]1O[C@@H](n2cnc3c(N)ncnc32)[C@H](O)[C@@H]1O)c1ccc(Cl)cc1" , tested on UniProt P45983?
Reply: 14

Ask: Could you share what inhibition at 10 µM was measured for "Nc1ncnc2c1ncn2[C@@H]1O[C@H](COC(=O)NCCCc2nc3ccccc3[nH]2)[C@@H](O)[C@H]1O" , tested on UniProt P45983?
Reply: 12

Ask: Could you share what inhibition at 10 µM was measured for Nc1ncnc2c1ncn2[C@@H]1O[C@H](COC(=O)N2CCC(Cc3ccc(F)cc3)C2)[C@@H](O)[C@H]1O (stereo partly shown) , tested on UniProt P45983?
Reply: 6

====

Kindly supply the reported inhibition at 10 µM values for the records listed here.
- TARGET_ENTITY: GSK3B (GSK3 beta) (Homo sapiens, UniProt P49841)
- Sequence (P49841 whole entry, species assumed): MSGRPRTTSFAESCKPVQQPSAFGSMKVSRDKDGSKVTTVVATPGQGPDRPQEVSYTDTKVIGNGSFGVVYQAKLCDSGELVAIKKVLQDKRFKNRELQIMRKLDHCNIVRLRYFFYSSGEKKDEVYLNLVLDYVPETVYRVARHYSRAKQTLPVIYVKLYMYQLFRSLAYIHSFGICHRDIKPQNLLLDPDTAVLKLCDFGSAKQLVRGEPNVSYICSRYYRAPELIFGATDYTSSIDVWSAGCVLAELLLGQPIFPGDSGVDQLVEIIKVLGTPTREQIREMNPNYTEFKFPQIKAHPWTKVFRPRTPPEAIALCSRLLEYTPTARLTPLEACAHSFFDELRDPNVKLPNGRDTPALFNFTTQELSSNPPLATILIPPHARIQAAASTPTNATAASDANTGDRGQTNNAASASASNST
- ASSAY_NOTES: FRET-based coupled-enzyme protein kinase inhibition assay
- Format: biochemical
- TEST_SETTINGS: compound at 10 µM, 1% DMSO
A bare number is not enough; add the unit after it.

Ask: So what's the measured inhibition at 10 µM for this one? N#CCCN1CCN(C(=O)OC[C@H]2O[C@@H](n3cnc4c(N)ncnc43)[C@H](O)[C@@H]2O)CC1 [Compound C70]
Reply: 0%

Ask: So what's the measured inhibition at 10 µM for this one? Nc1ncnc2c1ncn2[C@@H]1O[C@H](COC(=O)N[C@@H]2CCN(Cc3ccccc3)C2)[C@@H](O)[C@H]1O [Compound C10]
Reply: 8%

Ask: So what's the measured inhibition at 10 µM for this one? CC(C)N1CCC(NC(=O)OC[C@H]2O[C@@H](n3cnc4c(N)ncnc43)[C@H](O)[C@@H]2O)CC1 [Compound C19]
Reply: 6%

Ask: So what's the measured inhibition at 10 µM for this one? Nc1ncnc2c1ncn2[C@@H]1O[C@H](COC(=O)N2CCS(=O)(=O)CC2)[C@@H](O)[C@H]1O [Compound C100]
Reply: 5%

Ask: So what's the measured inhibition at 10 µM for this one? Nc1ncnc2c1ncn2[C@@H]1O[C@H](COC(=O)NCCCc2nc3ccccc3[nH]2)[C@@H](O)[C@H]1O [Compound C1]
Reply: 7%

Ask: So what's the measured inhibition at 10 µM for this one? Nc1ncnc2c1ncn2[C@@H]1O[C@H](COC(=O)N2CCN(Cc3ccccc3)CC2CO)[C@@H](O)[C@H]1O (stereo partly shown) [Compound C13]
Reply: 4%

Ask: So what's the measured inhibition at 10 µM for this one? Nc1ncnc2c1ncn2[C@@H]1O[C@H](COC(=O)N2CCC[C@H]2CO)[C@@H](O)[C@H]1O [Compound C9]
Reply: -6%

====

- TARGET_ENTITY: UniProt P51812
- Sequence (P51812 whole entry, species assumed): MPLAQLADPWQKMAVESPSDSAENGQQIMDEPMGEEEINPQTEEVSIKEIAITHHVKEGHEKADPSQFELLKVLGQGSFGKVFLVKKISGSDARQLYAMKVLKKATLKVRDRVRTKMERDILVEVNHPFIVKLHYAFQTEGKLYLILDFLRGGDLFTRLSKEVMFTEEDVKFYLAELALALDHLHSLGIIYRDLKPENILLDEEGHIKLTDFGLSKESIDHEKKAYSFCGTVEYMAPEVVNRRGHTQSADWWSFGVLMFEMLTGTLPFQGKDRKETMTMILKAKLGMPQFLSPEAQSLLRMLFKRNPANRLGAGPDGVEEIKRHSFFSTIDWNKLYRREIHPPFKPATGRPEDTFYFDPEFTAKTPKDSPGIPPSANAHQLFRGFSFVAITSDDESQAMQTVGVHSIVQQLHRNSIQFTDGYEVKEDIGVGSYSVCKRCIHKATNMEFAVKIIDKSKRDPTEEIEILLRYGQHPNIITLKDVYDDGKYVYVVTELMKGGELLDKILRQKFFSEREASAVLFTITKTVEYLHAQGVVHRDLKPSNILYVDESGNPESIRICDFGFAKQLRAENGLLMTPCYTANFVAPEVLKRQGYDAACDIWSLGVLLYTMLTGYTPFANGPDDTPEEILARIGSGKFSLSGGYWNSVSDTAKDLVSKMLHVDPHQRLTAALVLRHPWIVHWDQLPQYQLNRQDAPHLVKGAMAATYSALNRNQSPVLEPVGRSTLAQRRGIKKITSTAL
- ASSAY_NOTES: FRET-based coupled-enzyme protein kinase inhibition assay
- Type: biochemical
- TEST_SETTINGS: compound at 10 µM, 1% DMSO
VALUE_TYPE: inhibition at 10 µM (%)
Number in %, nothing else.

Ask: So what's the measured inhibition at 10 µM for this one? "Nc1ncnc2c1ncn2[C@@H]1O[C@H](COC(=O)NCCCc2nc3ccccc3[nH]2)[C@@H](O)[C@H]1O"
Reply: 8

Ask: So what's the measured inhibition at 10 µM for this one? "Nc1ncnc2c1ncn2[C@@H]1O[C@H](COC(=O)NCCN2CCCC2=O)[C@@H](O)[C@H]1O"
Reply: 2

Ask: So what's the measured inhibition at 10 µM for this one? "Nc1ncnc2c1ncn2[C@@H]1O[C@H](COC(=O)N2CCN(C(=O)N3CCOCC3)CC2)[C@@H](O)[C@H]1O"
Reply: 0
